test: In-vitro membrane permeability test (Test Example [3]); assay type: in vitro ADME; settings: human, Caco-2, Caco2 cells, apical to basolateral, 2 hours; read-out: membrane permeability in terms of the Papp values
READOUT: Papp A→B at 2 h, 25 μM

Exam item: What Papp A→B at 2 h, 25 μM value was documented for this compound, Cc1ccc(N2c3cccc(C(=O)Nc4ccc(OCC(F)(F)F)nc4)c3OC[C@@H]2CO)nc1 [Example 1-6] ?
Marked response: ≥ 30 ×10⁻⁶ cm/s

Exam item: What Papp A→B at 2 h, 25 μM value was documented for this compound, Cc1ccc(N2c3cccc(C(=O)Nc4ccc(OCC(C)C)nc4)c3OC[C@@H]2CO)nc1 [Example 1-7] ?
Marked response: ≥ 30 ×10⁻⁶ cm/s

Exam item: What Papp A→B at 2 h, 25 μM value was documented for this compound, Cc1ccc(N2c3cccc(C(=O)Nc4ccc(OCC(C)(C)C)nc4)c3OC[C@@H]2CO)nc1 [Example 1-4] ?
Marked response: ≥ 30 ×10⁻⁶ cm/s

---

Record form. Attribute: Papp A→B at 2 h, 25 μM. Fill in for each entry.
assay: In-vitro membrane permeability test (Test Example [3]); assay type: in vitro ADME; settings: human, Caco-2, Caco2 cells, apical (pH 6.5) to basolateral (pH 7.4, 4.5% BSA), 25 μM, 37° C., 2 hours; read-out: membrane permeability Papp
Answer format: value, then unit.

Exam item: What Papp A→B at 2 h, 25 μM value was documented for this molecule, "Cc1ccc(N2c3cccc(C(=O)Nc4cc(F)c(OC(C)(C)C)c(F)c4)c3OC[C@@H]2CO)nc1" ?
Marked response: 8.59 ×10⁻⁶ cm/s

Exam item: What Papp A→B at 2 h, 25 μM value was documented for this molecule, "O=C(Nc1ccc(OCC(F)(F)F)c(Cl)c1)c1cccc2c1OCCN2c1ncc(CO)cc1Cl" ?
Marked response: 5.3 ×10⁻⁶ cm/s

Exam item: What Papp A→B at 2 h, 25 μM value was documented for this molecule, "O=C(Nc1ccc(OCC(F)(F)F)cc1)c1cccc2c1OCCN2c1ncc(CO)cc1Cl" ?
Marked response: 25.6 ×10⁻⁶ cm/s

Exam item: What Papp A→B at 2 h, 25 μM value was documented for this molecule, "Cc1ccc(N2c3cccc(C(=O)Nc4cc(F)c(OC(C)C)c(F)c4)c3OC[C@@H]2CO)nc1" ?
Marked response: 21 ×10⁻⁶ cm/s

Exam item: What Papp A→B at 2 h, 25 μM value was documented for this molecule, "O=C(Nc1ccc(OC(F)(F)F)cc1)c1cccc2c1OCCN2c1ncc(CO)cc1Cl" ?
Marked response: 27.1 ×10⁻⁶ cm/s

Exam item: What Papp A→B at 2 h, 25 μM value was documented for this molecule, "O=C(Nc1cc(Cl)cc(Cl)c1)c1cccc2c1OCCN2c1ncc(CO)cc1Cl" ?
Marked response: 7.9 ×10⁻⁶ cm/s

Exam item: What Papp A→B at 2 h, 25 μM value was documented for this molecule, "Cc1ccc(N2c3cccc(C(=O)Nc4cc(F)c(OCC(C)(C)O)c(F)c4)c3OC[C@@H]2CO)nc1" ?
Marked response: 50.4 ×10⁻⁶ cm/s

Exam item: What Papp A→B at 2 h, 25 μM value was documented for this molecule, "Cc1ccc(N2c3cccc(C(=O)Nc4ccc(OC(F)(F)F)cc4)c3OC[C@@H]2CO)nc1" ?
Marked response: 21.1 ×10⁻⁶ cm/s

Exam item: What Papp A→B at 2 h, 25 μM value was documented for this molecule, "Cc1ccc(N2c3cccc(C(=O)Nc4ccc(OC(C)(C)C)nc4)c3OC[C@@H]2CO)nc1" ?
Marked response: 38.1 ×10⁻⁶ cm/s

Exam item: What Papp A→B at 2 h, 25 μM value was documented for this molecule, "Cc1ccc(N2c3cccc(C(=O)Nc4ccc(C(F)(F)F)cc4)c3OC[C@@H]2CO)nc1" ?
Marked response: 18.2 ×10⁻⁶ cm/s

Exam item: What Papp A→B at 2 h, 25 μM value was documented for this molecule, "Cc1ccc(N2c3cccc(C(=O)Nc4ccc(OCC(C)(C)C)nc4)c3OC[C@@H]2CO)nc1" ?
Marked response: 30.2 ×10⁻⁶ cm/s

Exam item: What Papp A→B at 2 h, 25 μM value was documented for this molecule, "Cc1ccc(N2c3cccc(C(=O)Nc4ccc(OCC(F)(F)F)nc4)c3OC[C@@H]2CO)nc1" ?
Marked response: 37.5 ×10⁻⁶ cm/s

Exam item: What Papp A→B at 2 h, 25 μM value was documented for this molecule, "Cc1ccc(N2c3cccc(C(=O)Nc4ccc(OC(C)(C)C)c(F)c4)c3OC[C@@H]2CO)nc1" ?
Marked response: 28.6 ×10⁻⁶ cm/s

Exam item: What Papp A→B at 2 h, 25 μM value was documented for this molecule, "Cc1ccc(N2c3cccc(C(=O)Nc4ccc(C(F)(F)F)c(F)c4)c3OC[C@@H]2CO)nc1" ?
Marked response: 19.4 ×10⁻⁶ cm/s

Exam item: What Papp A→B at 2 h, 25 μM value was documented for this molecule, "Cc1ccc(N2c3cccc(C(=O)Nc4ccc(OC(F)(F)F)c(Cl)c4)c3OC[C@@H]2CO)nc1" ?
Marked response: 6.7 ×10⁻⁶ cm/s

Exam item: What Papp A→B at 2 h, 25 μM value was documented for this molecule, "O=C(Nc1ccc(C(F)(F)F)cc1)c1cccc2c1OCCN2c1ncc(CO)cc1Cl" ?
Marked response: 24.2 ×10⁻⁶ cm/s

Exam item: What Papp A→B at 2 h, 25 μM value was documented for this molecule, "Cc1ccc(N2c3cccc(C(=O)Nc4ccc(OCC(C)C)nc4)c3OC[C@@H]2CO)nc1" ?
Marked response: 37.9 ×10⁻⁶ cm/s

Exam item: What Papp A→B at 2 h, 25 μM value was documented for this molecule, "Cc1ccc(N2c3cccc(C(=O)Nc4ccc(OC(C)C)c(F)c4)c3OC[C@@H]2CO)nc1" ?
Marked response: 40.3 ×10⁻⁶ cm/s

Exam item: What Papp A→B at 2 h, 25 μM value was documented for this molecule, "CCOc1c(F)cc(NC(=O)c2cccc3c2OC[C@H](CO)N3c2ccc(C)cn2)cc1F" ?
Marked response: 26.9 ×10⁻⁶ cm/s

Exam item: What Papp A→B at 2 h, 25 μM value was documented for this molecule, "Cc1ccc(N2c3cccc(C(=O)Nc4cc(F)c(OC(C)(C)CO)c(F)c4)c3OC[C@@H]2CO)nc1" ?
Marked response: 39.2 ×10⁻⁶ cm/s

Exam item: What Papp A→B at 2 h, 25 μM value was documented for this molecule, "Cc1ccc(N2c3cccc(C(=O)Nc4ccc(C(F)(F)F)nc4)c3OC[C@@H]2CO)nc1" ?
Marked response: 43.1 ×10⁻⁶ cm/s

Exam item: What Papp A→B at 2 h, 25 μM value was documented for this molecule, "Cc1ccc(N2c3cccc(C(=O)Nc4ccc(OCC(C)C)c(F)c4)c3OC[C@@H]2CO)nc1" ?
Marked response: 10.4 ×10⁻⁶ cm/s

Exam item: What Papp A→B at 2 h, 25 μM value was documented for this molecule, "Cc1ccc(N2c3cccc(C(=O)Nc4cc(F)c(OCC(F)(F)F)c(F)c4)c3OC[C@@H]2CO)nc1" ?
Marked response: 13.6 ×10⁻⁶ cm/s

---

molecular target: UniProt Q8NER1; test: Inhibition of Ca2+ entry in cells caused by proton (Test Example [1]); details: rat glioma (C6BU1) cells stably expressing human VR1; proton stimulation, pH 5.7; Ca2+ uptake, Fura 2-AM; read-out: VRI Inhibition IC50
Sequence (Q8NER1 whole entry): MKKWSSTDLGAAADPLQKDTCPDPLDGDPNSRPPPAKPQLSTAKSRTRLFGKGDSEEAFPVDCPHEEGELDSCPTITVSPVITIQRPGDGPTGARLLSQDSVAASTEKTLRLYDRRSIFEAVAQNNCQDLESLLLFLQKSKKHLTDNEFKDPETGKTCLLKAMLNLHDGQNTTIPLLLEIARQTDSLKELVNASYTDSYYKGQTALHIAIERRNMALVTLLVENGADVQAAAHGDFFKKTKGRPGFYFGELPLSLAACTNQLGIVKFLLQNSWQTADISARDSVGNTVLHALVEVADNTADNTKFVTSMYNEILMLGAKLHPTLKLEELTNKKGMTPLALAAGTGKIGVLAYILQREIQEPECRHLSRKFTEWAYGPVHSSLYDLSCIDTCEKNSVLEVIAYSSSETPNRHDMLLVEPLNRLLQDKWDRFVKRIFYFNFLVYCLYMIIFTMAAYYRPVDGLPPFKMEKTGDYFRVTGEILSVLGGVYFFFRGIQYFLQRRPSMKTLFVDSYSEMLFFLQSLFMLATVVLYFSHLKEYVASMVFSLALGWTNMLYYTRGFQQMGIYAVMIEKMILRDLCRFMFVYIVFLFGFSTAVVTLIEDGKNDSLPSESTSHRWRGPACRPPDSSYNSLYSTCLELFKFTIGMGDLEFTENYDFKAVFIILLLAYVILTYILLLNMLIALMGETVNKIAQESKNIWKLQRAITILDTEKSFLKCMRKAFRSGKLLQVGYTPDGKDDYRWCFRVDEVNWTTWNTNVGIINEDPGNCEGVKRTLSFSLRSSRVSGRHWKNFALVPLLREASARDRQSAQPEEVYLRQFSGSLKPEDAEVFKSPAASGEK
READOUT: IC50 (nM)
Just the number please, in nM, no unit attached.

Exam item: Form field: IC50 recorded for O=C(Nc1cc(Cl)cc(Cl)c1)c1cccc2c1OCCN2c1ncc(CO)cc1Cl [Comparative Example 5] with UniProt Q8NER1 (enter value)
Marked response: 42

Exam item: Form field: IC50 recorded for Cc1ccc(N2c3cccc(C(=O)Nc4cc(F)c(OCC(F)(F)F)c(F)c4)c3OC[C@@H]2CO)nc1 [Example 1-8] with UniProt Q8NER1 (enter value)
Marked response: 0.038

Exam item: Form field: IC50 recorded for Cc1ccc(N2c3cccc(C(=O)Nc4ccc(C(F)(F)F)nc4)c3OC[C@@H]2CO)nc1 [Comparative Example 8] with UniProt Q8NER1 (enter value)
Marked response: 7

Exam item: Form field: IC50 recorded for Cc1ccc(N2c3cccc(C(=O)Nc4ccc(OCC(F)(F)F)nc4)c3OC[C@@H]2CO)nc1 [Example 1-6] with UniProt Q8NER1 (enter value)
Marked response: 0.15

Exam item: Form field: IC50 recorded for Cc1ccc(N2c3cccc(C(=O)Nc4cc(F)c(OC(C)C)c(F)c4)c3OC[C@@H]2CO)nc1 [Example 1-2] with UniProt Q8NER1 (enter value)
Marked response: 0.038

Exam item: Form field: IC50 recorded for Cc1ccc(N2c3cccc(C(=O)Nc4ccc(OC(C)C)c(F)c4)c3OC[C@@H]2CO)nc1 [Comparative Example 11] with UniProt Q8NER1 (enter value)
Marked response: 0.36

Exam item: Form field: IC50 recorded for Cc1ccc(N2c3cccc(C(=O)Nc4ccc(C(F)(F)F)c(F)c4)c3OC[C@@H]2CO)nc1 [Comparative Example 9] with UniProt Q8NER1 (enter value)
Marked response: 0.12

Exam item: Form field: IC50 recorded for CCOc1c(F)cc(NC(=O)c2cccc3c2OC[C@H](CO)N3c2ccc(C)cn2)cc1F [Example 1-3] with UniProt Q8NER1 (enter value)
Marked response: 0.24
